Measured Bioactivity relative to TL1A-0002, listed per entry for reference.
- tested.target: T1, recombinant human TL1A (human, UniProt O95150 71-251)
- T1 construct: homotrimer; biotinylated for SPR capture; the ELISA paragraphs say only 'recombinant TL1A'; also called TNFSF15
- T1 chain: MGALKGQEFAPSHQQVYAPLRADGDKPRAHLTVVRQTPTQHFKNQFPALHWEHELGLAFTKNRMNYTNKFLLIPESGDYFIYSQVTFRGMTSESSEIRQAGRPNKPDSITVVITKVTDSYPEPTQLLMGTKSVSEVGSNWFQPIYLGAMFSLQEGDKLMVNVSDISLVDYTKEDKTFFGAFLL
- procedure.text: competition ELISA vs bio-TL1A-0002
The response must be a number in fold with no trailing unit.

{"binder": "TL1A-0196 (antibody, IgG1, V domains shown, IgG1/kappa variant of TL1A-0002) VH: QVQLVQSGAEVKKPGASVKVSCKASGYDFTYYGISWVRQAPGQGLEWMGWISTYNGNTHYARMLQGRVTMTTDTSTRTAYMELRSLRSDDTAVYYCARESYYGSGEYRGGMDVWGQGTTVTVSS VL: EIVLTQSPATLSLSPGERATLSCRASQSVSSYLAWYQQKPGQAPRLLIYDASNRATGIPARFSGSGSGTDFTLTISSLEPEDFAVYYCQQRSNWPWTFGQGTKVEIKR", "Bioactivity relative to TL1A-0002 (fold)": 2.7}
{"binder": "TL1A-0092 (antibody, IgG1, V domains shown, IgG1/kappa variant of TL1A-0002) VH: QVQLVQSGAEVKKPGASVKVSCKASGYDFTYYGISWVRQAPGQGLEWMGWISTYNTVTHYAPSLQGRVTMTTDTSTRTAYMELRSLRSDDTAVYYCARENYYGSGAYRGGMDVWGQGTTVTVSS VL: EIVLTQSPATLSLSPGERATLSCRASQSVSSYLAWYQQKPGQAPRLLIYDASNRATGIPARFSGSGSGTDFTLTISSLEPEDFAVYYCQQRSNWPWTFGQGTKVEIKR", "Bioactivity relative to TL1A-0002 (fold)": 1.2}

Please look at the following binder next.
Briefly, Bioactivity relative to TL1A-0002 measured for TL1A-0002 (antibody, human IgG1, kappa, V domains shown, human IgG1/kappa, effector function minimized; also called bioTL1A-0002 (biotinylated)) VH: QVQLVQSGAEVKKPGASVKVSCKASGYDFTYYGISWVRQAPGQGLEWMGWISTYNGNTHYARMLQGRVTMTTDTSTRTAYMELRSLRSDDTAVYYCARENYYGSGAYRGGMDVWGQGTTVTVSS VL: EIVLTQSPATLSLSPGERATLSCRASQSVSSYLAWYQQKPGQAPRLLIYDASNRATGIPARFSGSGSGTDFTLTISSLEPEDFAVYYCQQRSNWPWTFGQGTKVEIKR : 1
